Data provenance: patent US12097252B2

- assay-comment: In-use chemical stability of vaccine emulsions by UPLC/MS after extraction of peptides
- Assay type: physicochemical
- setup-conditions: peak in reconstituted P53-DP-5P, in-use storage t = 1 h
measurement-label: Peptides and related substances (≥0.05%) [Area %] (Area %)
Answers are plain numbers, in Area %.

>  <substance>
SEQ ID NO 201: P53-derived synthetic long peptide, component of P53 DP-5P (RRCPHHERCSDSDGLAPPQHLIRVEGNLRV)

>  <reported-measurement>
11.73

$$$$
>  <substance>
SEQ ID NO 193: P53-derived synthetic long peptide, component of P53 DP-5P (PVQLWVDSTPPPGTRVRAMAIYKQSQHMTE)

>  <reported-measurement>
22.38

$$$$

Sample SEQ ID NO 194: P53-derived synthetic long peptide, component of P53 DP-5P (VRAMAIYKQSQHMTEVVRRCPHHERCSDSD) ; Peptides and related substances (≥0.05%) [Area %] observed: 12.02

----------
- assay-comment: In-use chemical stability of vaccine emulsions by UPLC/MS after extraction of peptides
- Type: physicochemical
- setup-conditions: peak in reconstituted P53-DP-5P, in-use storage t = 3 h
Bridge positions count the residues as written; N and C are the ends. Ends that are not written are not given here.
# cutoff 10 Area % applies to Peptides and related substances (≥0.05%) [Area %]; >= gives criterion met, < gives criterion not met

See these solved cases before continuing.
>  <substance>
SEQ ID NO 193: P53-derived synthetic long peptide, component of P53 DP-5P (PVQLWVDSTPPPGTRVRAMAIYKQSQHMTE)

>  <discrete-label>
criterion met

$$$$
>  <substance>
SEQ ID NO 194: P53-derived synthetic long peptide, component of P53 DP-5P (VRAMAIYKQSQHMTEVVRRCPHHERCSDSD)

>  <discrete-label>
criterion met

$$$$
>  <substance>
SEQ ID NO 203: P53-derived synthetic long peptide, component of P53 DP-5P (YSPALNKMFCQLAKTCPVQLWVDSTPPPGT)

>  <discrete-label>
criterion met

$$$$
>  <substance>
SEQ ID NO 191: P53-derived synthetic long peptide, component of P53 DP-5P (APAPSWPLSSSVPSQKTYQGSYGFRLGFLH)

>  <discrete-label>
criterion met

$$$$
>  <substance>
SEQ ID NO 201: P53-derived synthetic long peptide, component of P53 DP-5P (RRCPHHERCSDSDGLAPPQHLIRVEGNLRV)

>  <discrete-label>
criterion met

$$$$

Shift focus to the following entry.
In plain terms: is recorded Peptides and related substances (≥0.05%) [Area %] at least 10 Area % for SEQ ID NO 203 intramolecular disulfide: related substance: intramolecular disulfide of the peptide set forth in SEQ ID NO: 203 (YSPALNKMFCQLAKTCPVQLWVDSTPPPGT; disulfide 10-16 (inferred)) ?
criterion not met

----------
Record form. Attribute: Related substances (≥0.05%) [Area %]. Fill in for each entry.
- assay-comment: In-use chemical stability of vaccine emulsions by UPLC/MS after extraction of peptides
- Assay type: physicochemical
- setup-conditions: peak in reconstituted PRAME-DP-5P, in-use storage t = 1 h

Solved cases below.
>  <substance>
SEQ ID NO 156: PRAME-derived peptide, component of PRAME DP-5P (IPVEVLVDLFLKEGACDELFSYLIEKVKRKKNVLR)

>  <Related substances (≥0.05%) [Area %]>
10.52 Area %

$$$$
>  <substance>
SEQ ID NO 160: PRAME-derived peptide, component of PRAME DP-5P (LRRLLLSHIHASSYISPEKEEQYIAQFTSQFLS)

>  <Related substances (≥0.05%) [Area %]>
13.49 Area %

$$$$
>  <substance>
SEQ ID NO 155: PRAME-derived peptide, component of PRAME DP-5P (WTVWSGNRASLYSFPEPEAAQPMTKKRKVDGLST)

>  <Related substances (≥0.05%) [Area %]>
22.85 Area %

$$$$
>  <substance>
SEQ ID NO 153: PRAME-derived peptide, component of PRAME DP-5P (LETFKAVLDGLDVLLAQEVRPRRWKLQVLDLRK)

>  <Related substances (≥0.05%) [Area %]>
22.70 Area %

$$$$

Okay, next one:
Sample SEQ ID NO 166: PRAME-derived peptide, component of PRAME DP-5P (SYEDIHGTLHLERLAYLHARLRELLCELGRPSMV) ; Related substances (≥0.05%) [Area %] observed: 14.15 Area %

----------
Record form. Attribute: Related substances (≥0.05%) [Area %]. Fill in for each entry.
- assay-comment: In-use chemical stability of vaccine emulsions by UPLC/MS after extraction of peptides
- Format: physicochemical
- setup-conditions: peak in reconstituted PRAME-DP-5P, in-use storage t = 3 h

Solved cases below.
>  <substance>
SEQ ID NO 160: PRAME-derived peptide, component of PRAME DP-5P (LRRLLLSHIHASSYISPEKEEQYIAQFTSQFLS)

>  <Related substances (≥0.05%) [Area %]>
13.40 Area %

$$$$
>  <substance>
SEQ ID NO 156: PRAME-derived peptide, component of PRAME DP-5P (IPVEVLVDLFLKEGACDELFSYLIEKVKRKKNVLR)

>  <Related substances (≥0.05%) [Area %]>
9.98 Area %

$$$$
>  <substance>
SEQ ID NO 155: PRAME-derived peptide, component of PRAME DP-5P (WTVWSGNRASLYSFPEPEAAQPMTKKRKVDGLST)

>  <Related substances (≥0.05%) [Area %]>
22.62 Area %

$$$$

Please go through the list and note Related substances (≥0.05%) [Area %] for each substance.
1. SEQ ID NO 166: PRAME-derived peptide, component of PRAME DP-5P (SYEDIHGTLHLERLAYLHARLRELLCELGRPSMV)
2. SEQ ID NO 153: PRAME-derived peptide, component of PRAME DP-5P (LETFKAVLDGLDVLLAQEVRPRRWKLQVLDLRK)

1. 13.59 Area %
2. 22.59 Area %

----------
- assay-comment: In-use chemical stability of vaccine emulsions by UPLC/MS after extraction of peptides
- Format: physicochemical
- setup-conditions: peak in reconstituted PRAME-DP-5P, in-use storage t = 2 h
measurement-label: Related substances (≥0.05%) [Area %]
Param answer (str): number followed by unit.

>  <substance>
SEQ ID NO 166: PRAME-derived peptide, component of PRAME DP-5P (SYEDIHGTLHLERLAYLHARLRELLCELGRPSMV)

>  <measurement-label>
Related substances (≥0.05%) [Area %]

>  <reported-measurement>
13.81 Area %

$$$$

Please go through the list and note Related substances (≥0.05%) [Area %] for each substance.
1. SEQ ID NO 153: PRAME-derived peptide, component of PRAME DP-5P (LETFKAVLDGLDVLLAQEVRPRRWKLQVLDLRK)
2. SEQ ID NO 160: PRAME-derived peptide, component of PRAME DP-5P (LRRLLLSHIHASSYISPEKEEQYIAQFTSQFLS)

1: 22.51 Area %; 2: 13.34 Area %
